- TARGET_OR_SYSTEM: T1, UbcH5B S22R C85K–Ub (UniProt P62837 1-147; P0CG47 1-76, S22R | C85K, conjugated to Ub via an isopeptide bond (non-hydrolyzable amide linkage) | conjugated to UbcH5B via an isopeptide bond)
- T1 construct: E2 ubiquitin-conjugating enzyme UbcH5B; ubiquitin (Ub); also called UbcH5B–Ub; E2–Ub; source: expressed, generated and purified as described previously [7]
- PROTOCOL_SUMMARY: SPR; GST-Cbl variants coupled to CM-5 chips; UbcH5B–Ub as analyte at 0–120 μM; Biacore T200
- STATED_CONDITIONS: both partners purified
Known Kd of a selection of binders

BINDER	MEASURE_UNIT	Kd
His-GST-pTyr371-N-Cbl Y368F (residues 47-435) (domain or fragment, UniProt P22681 47-435, looked up, phosphotyrosine at 371, Cbl (c-Cbl), N-terminal fragment with TKBD, linker helix region and RING domain (N-Cbl), residues 47-435; Y368F is required for homogeneous phosphorylation at Tyr371; also called pY371 Y368F; source: generated as described previously [6]; not shown: His, N-terminal, kept; GST, N-terminal, kept) PPGTVDKKMVEKCWKLMDKVVRLCQNPKLALKNSPPYILDLLPDTYQHLRTILSRYEGKMETLGENEYFRVFMENLMKKTKQTISLFKEGKERMYEENSQPRRNLTKLSLIFSHMLAELKGIFPSGLFQGDTFRITKADAAEFWRKAFGEKTIVPWKSFRQALHEVHPISSGLEAMALKSTIDLTCNDYISVFEFDIFTRLFQPWSSLLRNWNSLAVTHPGYMAFLTYDEVKARLQKFIHKPGSYIFRLSCTRLGQWAIGYVTADGNILQTIPHNKPLFQALIDGFREGFYLFPDGRNQNPDLTGLCEPTPQDHIKVTQEQFELYCEMGSTFQLCKICAENDKDVKIEPCGHLMCTSCLTSWQESEGQGCPFCRCEIKGTEPIVVDPFD	µM	2.6
His-GST-N-Cbl Y371H (residues 47-435) (domain or fragment, UniProt P22681 47-435, looked up, Cbl (c-Cbl), N-terminal fragment with TKBD, linker helix region and RING domain (N-Cbl), residues 47-435; mutation identified in MDS/MPN clinical samples; Tag not cleaved for SPR; not shown: His, N-terminal, kept; GST, N-terminal, kept) PPGTVDKKMVEKCWKLMDKVVRLCQNPKLALKNSPPYILDLLPDTYQHLRTILSRYEGKMETLGENEYFRVFMENLMKKTKQTISLFKEGKERMYEENSQPRRNLTKLSLIFSHMLAELKGIFPSGLFQGDTFRITKADAAEFWRKAFGEKTIVPWKSFRQALHEVHPISSGLEAMALKSTIDLTCNDYISVFEFDIFTRLFQPWSSLLRNWNSLAVTHPGYMAFLTYDEVKARLQKFIHKPGSYIFRLSCTRLGQWAIGYVTADGNILQTIPHNKPLFQALIDGFREGFYLFPDGRNQNPDLTGLCEPTPQDHIKVTQEQYELHCEMGSTFQLCKICAENDKDVKIEPCGHLMCTSCLTSWQESEGQGCPFCRCEIKGTEPIVVDPFD	µM	39
